Target: 5-LOX (5-lipoxygenase)
Experiment: 5-Lipoxygenase inhibitory assay
Details: conc. 0.001, 0.01, 1.0 and 10 µM; zileuton positive control; read-out: 5-LOX inhibition IC50
Procedure: Optical rotation was estimated using a 341LC Perkin-Elmer polarimeter (Perkin-Elmer, Waltham, MA, USA). UV and IR were assessed employing Shimadzu UV/VIS 1601 and IR-400 spectrophotometers (Shimadzu, Kyoto, Japan), respectively. […] IC50s were estimated by regression analysis (GraphPad-InStat 3, GraphPad Software, San Diego, CA, USA). […] Statistical significance was analyzed among the samples by one-way-ANOVA and subsequently by Tukey–Kramer test (p < 0.005).
As shown below, each of these molecules has a reported IC50 value.
readout_name: IC50 (nM)

>>> test_result("C=C(CCC(C)C1CC=C2C3=C(C(O)C(OC(C)=O)C21C)C1(C)CC(O)C(OC(=O)CCCCCCCCCO)C(C)(C)C1CC3)C(C)C (stereo not drawn) [Compound 4, integracide G]")
1180
>>> test_result("C=C(CCC(C)C1CC=C2C3=C(C(O)C(OC(C)=O)C21C)C1(C)CC(OC(C)=O)C(OC(C)=O)C(C)(C)C1CC3)C(C)C (stereo not drawn) [Compound 5, integracide H]")
1460
>>> test_result("C=C(CCC(C)C1(O)CCC2C3=C(C(O)C(OC(C)=O)C21C)C1(C)CC(O)C(OC(C)=O)C(C)(C)C1CC3)C(C)C (stereo not drawn) [Compound 1, integracide L]")
3450
>>> test_result("C=C(CC[C@@H](C)[C@H]1CC=C2C3=C([C@@H](O)[C@H](OC(C)=O)[C@@]21C)[C@@]1(C)C[C@@H](O)[C@H](O)C(C)(C)[C@@H]1CC3)C(C)C [Compound 2, integracide B]")
3970
>>> test_result("C=C(CCC(C)C1CC=C2C3=C(C(O)C(OC(C)=O)C21C)C1(C)CC(O)C(OC(C)=O)C(C)(C)C1CC3)C(C)C (stereo not drawn) [Compound 3, integracide F]")
2760
>>> test_result("C=C(CCC(C)C1CC=C2C3=C(C(O)C(OC(C)=O)C21C)C1(C)CC(O)C(OC(=O)c2ccc(O)cc2)C(C)(C)C1CC3)C(C)C (stereo not drawn) [Compound 6, integracide J]")
2010

Entry source: paper PMC9782297
